Some binders, each annotated with its measured kon.
- target desc: T1, Human PSMA antigen (human, UniProt Q04609 44-750, limits assumed)
- T1 construct: This is the antigen immobilised on the Biacore chip; also called FOLH1_HUMAN
- T1 sequence (Q04609 44-750 limits assumed): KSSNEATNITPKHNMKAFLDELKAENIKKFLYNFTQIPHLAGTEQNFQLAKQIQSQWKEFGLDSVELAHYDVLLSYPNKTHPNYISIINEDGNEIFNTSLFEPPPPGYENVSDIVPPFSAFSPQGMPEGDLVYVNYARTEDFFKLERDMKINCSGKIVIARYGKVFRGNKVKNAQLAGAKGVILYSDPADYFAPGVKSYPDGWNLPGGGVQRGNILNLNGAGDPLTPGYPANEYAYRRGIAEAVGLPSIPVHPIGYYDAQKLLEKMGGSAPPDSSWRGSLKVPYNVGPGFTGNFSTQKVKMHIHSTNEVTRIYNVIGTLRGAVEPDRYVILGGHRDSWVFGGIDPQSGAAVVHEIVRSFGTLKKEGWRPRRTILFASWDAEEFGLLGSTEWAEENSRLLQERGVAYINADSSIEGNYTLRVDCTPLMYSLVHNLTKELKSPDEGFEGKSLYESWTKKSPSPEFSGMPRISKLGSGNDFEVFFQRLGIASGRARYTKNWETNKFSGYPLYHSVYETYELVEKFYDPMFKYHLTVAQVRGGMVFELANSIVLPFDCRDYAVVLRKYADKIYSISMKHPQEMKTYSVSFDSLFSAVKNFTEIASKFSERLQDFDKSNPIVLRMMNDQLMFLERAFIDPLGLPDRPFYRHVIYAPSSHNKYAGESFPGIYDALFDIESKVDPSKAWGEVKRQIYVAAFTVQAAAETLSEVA
- test name: SPR (Biacore), 37 C, antibody over immobilized PSMA

| binder | kon / M⁻¹ s⁻¹ |
| --- | --- |
| huJ591 (J591_VH-3 + J591_VL-2) (antibody, human IgG1, V domains shown, One of the 9 huJ591 versions; Human IgG1 frameworks) VH: QVQLVQSGAEVKKPGASVKVSCKASGYTFTEYTMHWVRQAPGQRLEWMGNINPNNGGTTYSQKFQGRVTITVDKSASTAYMELSSLRSEDTAVYYCAAGWNFDYWGQGTLVTVSS VL: DIQLTQSPSFLSASVGDRVTITCRASQDVGTALDWYQQKPGKAPKLLIYWASTRHSGVPSRFSGSGSGTEFTLTISSLQPEDFATYYCQQYNSYPLTFGQGTKLEIK | 57400 |
| huJ591 (J591_VH-1 + J591_VL-1) (antibody, human IgG1, V domains shown, One of the 9 huJ591 versions made from three heavy and three light chain designs; Human IgG1 frameworks, expressed in CHO cells) VH: QVQLVQSGAEVKKPGASVKVSCKASGYTFTEYTMHWVRQAPGQGLEWMGNINPNNGGTTYAQKFQGRVTMTRDKSISTAYMELSRLRSDDTAVYYCAAGWNFDYWGQGTLVTVSS VL: DIQLTQSPSFLSASVGDRVTITCRASQDVGTALDWYQQKPGKAPKLLIYWASTLHSGVPSRFSGSGSGTEFTLTISSLQPEDFATYYCQQYNSYPLTFGQGTKLEIK | 68600 |
| huJ591 (J591_VH-2 + J591_VL-3) (antibody, human IgG1, V domains shown, One of the 9 huJ591 versions; Human IgG1 frameworks) VH: QVQLVQSGAEVKKPGASVKVSCKASGYTFTEYTMHWVRQAPGQGLEWMGNINPNNGGTTYNQKFQGRVTMTVDKSISTAYMELSRLRSDDTAVYYCAAGWNFDYWGQGTLVTVSS VL: DIVMTQSPSSLSASVGDRVTITCRASQDVGTALDWYQQKPGKAPELLIYWASSLHSGVPSRFRGSGSGTDFTLTISSVQPEDFATYYCQQYNSYPLTFGQGTKLEIK | 60600 |
| huJ591 (J591_VH-1 + J591_VL-3) (antibody, human IgG1, V domains shown, One of the 9 huJ591 versions; Human IgG1 frameworks) VH: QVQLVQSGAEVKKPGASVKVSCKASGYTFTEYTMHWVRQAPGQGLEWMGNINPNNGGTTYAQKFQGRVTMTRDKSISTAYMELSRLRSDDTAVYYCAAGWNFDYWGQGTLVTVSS VL: DIVMTQSPSSLSASVGDRVTITCRASQDVGTALDWYQQKPGKAPELLIYWASSLHSGVPSRFRGSGSGTDFTLTISSVQPEDFATYYCQQYNSYPLTFGQGTKLEIK | 80500 |
| huJ591 (J591_VH-2 + J591_VL-1) (antibody, human IgG1, V domains shown, One of the 9 huJ591 versions; Human IgG1 frameworks) VH: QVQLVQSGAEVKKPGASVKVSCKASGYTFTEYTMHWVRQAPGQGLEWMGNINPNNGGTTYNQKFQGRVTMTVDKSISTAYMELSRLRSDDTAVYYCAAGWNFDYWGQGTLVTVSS VL: DIQLTQSPSFLSASVGDRVTITCRASQDVGTALDWYQQKPGKAPKLLIYWASTLHSGVPSRFSGSGSGTEFTLTISSLQPEDFATYYCQQYNSYPLTFGQGTKLEIK | 49700 |
| huJ591 (J591_VH-3 + J591_VL-3) (antibody, human IgG1, V domains shown, One of the 9 huJ591 versions; Human IgG1 frameworks) VH: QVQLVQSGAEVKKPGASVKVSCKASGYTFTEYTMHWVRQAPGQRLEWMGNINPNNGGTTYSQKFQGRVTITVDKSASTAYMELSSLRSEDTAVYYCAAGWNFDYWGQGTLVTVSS VL: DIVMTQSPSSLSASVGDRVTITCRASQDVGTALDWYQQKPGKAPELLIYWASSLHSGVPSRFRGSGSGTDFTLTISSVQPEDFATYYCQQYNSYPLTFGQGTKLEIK | 47900 |
| huJ591 clone having combination of J591_VL-1 and J591_VH-3 (antibody, V domains shown, also called the select clone) VH: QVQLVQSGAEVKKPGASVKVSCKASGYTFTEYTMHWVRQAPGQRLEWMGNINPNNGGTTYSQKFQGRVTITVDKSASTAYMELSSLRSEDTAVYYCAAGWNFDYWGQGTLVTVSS VL: DIQLTQSPSFLSASVGDRVTITCRASQDVGTALDWYQQKPGKAPKLLIYWASTLHSGVPSRFSGSGSGTEFTLTISSLQPEDFATYYCQQYNSYPLTFGQGTKLEIKR | 58200 |
| huJ591 (J591_VH-2 + J591_VL-2) (antibody, human IgG1, V domains shown, One of the 9 huJ591 versions; Human IgG1 frameworks) VH: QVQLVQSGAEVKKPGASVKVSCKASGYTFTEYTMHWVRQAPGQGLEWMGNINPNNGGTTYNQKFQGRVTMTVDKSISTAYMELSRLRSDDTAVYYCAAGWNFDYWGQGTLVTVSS VL: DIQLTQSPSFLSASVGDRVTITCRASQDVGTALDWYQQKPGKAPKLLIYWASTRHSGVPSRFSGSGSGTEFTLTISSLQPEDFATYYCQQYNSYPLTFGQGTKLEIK | 59400 |
